# EXPERIMENTAL_TARGET: human matriptase (Homo sapiens)
# Sequence (Q9Y5Y6 615-855 limits assumed, other chains not shown): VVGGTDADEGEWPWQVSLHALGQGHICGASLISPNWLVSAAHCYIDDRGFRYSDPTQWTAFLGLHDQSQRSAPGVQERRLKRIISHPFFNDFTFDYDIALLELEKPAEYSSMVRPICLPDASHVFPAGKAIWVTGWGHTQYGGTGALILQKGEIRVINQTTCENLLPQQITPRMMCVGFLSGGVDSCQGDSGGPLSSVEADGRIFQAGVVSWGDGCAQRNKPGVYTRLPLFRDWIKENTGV
# ASSAY_TEXT: Assay for inhibition of matriptase (fluorogenic substrate Boc-Gln-Ala-Arg-AMC)
# Format: biochemical
# CONDITION_SUMMARY: residual matriptase activity in presence of test compound; hydrolysis of Boc-Gln-Ala-Arg-AMC; 10 μM for initial screening per method
MEASURED_ENDPOINT: Velocity (FU/min)
Record the result as a number with its unit.

Exam item: Value lookup for Velocity (FU/min); key = `C[C@@H]1NCCOc2cc(F)ccc2CCCNC(=O)[C@@H](Cc2ccc(C(=N)N)cc2)NC(=O)[C@@H](C)N(C)C1=O`
Marked response: 2300 FU/min

Exam item: Value lookup for Velocity (FU/min); key = `C[C@@H]1C(=O)N[C@H](Cc2c[nH]cn2)C(=O)NCCCc2ccc(F)cc2OCCN[C@@H](C2CC2)C(=O)N1C`
Marked response: 2700 FU/min

Exam item: Value lookup for Velocity (FU/min); key = `C[C@@H]1C(=O)N[C@H](Cc2ccncc2)C(=O)NCCCc2ccc(F)cc2OCCN[C@@H](C2CC2)C(=O)N1C`
Marked response: 2700 FU/min

Next:
Exam item: Value lookup for Velocity (FU/min); key = `C[C@@H]1C(=O)N[C@H](Cc2cscn2)C(=O)NCCCc2ccc(F)cc2OCCN[C@@H](C2CC2)C(=O)N1C`
Marked response: 2700 FU/min

Exam item: Value lookup for Velocity (FU/min); key = `C[C@@H]1C(=O)N[C@H](CCCN)C(=O)NCCCc2ccc(F)cc2OCCN[C@@H](C2CC2)C(=O)N1C`
Marked response: 2500 FU/min
